# TGT: Tyrosine-protein kinase Blk (Mus musculus, UniProt P16277)
# Sequence (P16277 whole entry): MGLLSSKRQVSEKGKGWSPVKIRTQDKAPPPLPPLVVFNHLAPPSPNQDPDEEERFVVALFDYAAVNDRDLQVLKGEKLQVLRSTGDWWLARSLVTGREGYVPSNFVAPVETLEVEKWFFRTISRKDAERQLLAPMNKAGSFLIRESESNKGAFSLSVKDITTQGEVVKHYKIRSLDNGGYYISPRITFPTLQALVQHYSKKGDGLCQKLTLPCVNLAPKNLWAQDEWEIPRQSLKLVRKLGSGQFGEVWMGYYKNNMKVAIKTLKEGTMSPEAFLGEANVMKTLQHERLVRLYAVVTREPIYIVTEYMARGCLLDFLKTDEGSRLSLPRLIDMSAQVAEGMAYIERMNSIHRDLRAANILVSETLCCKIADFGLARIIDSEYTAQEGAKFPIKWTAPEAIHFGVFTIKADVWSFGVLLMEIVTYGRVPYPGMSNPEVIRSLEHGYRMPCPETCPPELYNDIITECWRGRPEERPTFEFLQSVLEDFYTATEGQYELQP
# EXPERIMENTAL_PROTOCOL: Tested for inhibition of general tyrosine-specific protein kinase activity from murine B cell lysate
pIC50: −log10 of the molar value.
METRIC: pIC50

Recorded pIC50, per entry:
>>> value_reported("COc1ccc2c(c1)c1c3c(c4c5ccccc5n(C)c4c1n2CCC#N)C(=O)NC3=O")
"< 5.00"
>>> value_reported("COc1ccc2c(c1)c1c3c(c4c5cc(OC)ccc5n(CCC#N)c4c1n2C)CNC3=O")
"< 5.00"
>>> value_reported("COc1ccc2c(c1)c1c3c(c4c5ccccc5n(C)c4c1n2CC(O)CN(C)C)C(=O)NC3 (centres undefined)")
"< 5.00"

Query: Sample CN(C)CC(O)Cn1c2ccccc2c2c3c(c4c5ccccc5n(C)c4c21)C(=O)NC3 (centres undefined) — what was its pIC50?
Response: < 4.00

----------
# EXPERIMENTAL_PROTOCOL: Tested for inhibition of catalytic subunit of cAMP-dependent protein kinase from bovine heart
METRIC: log10(IC50) (log10 of the value in µM)
Values are log10 of IC50 in µM.

Recorded log10(IC50), per entry:
>>> value_reported("Cn1c2ccccc2c2c3c(c4c5ccccc5n(CCCN)c4c21)CNC3=O")
-0.12
>>> value_reported("CN(C)CC(O)Cn1c2ccccc2c2c3c(c4c5ccccc5n(C)c4c21)C(=O)NC3=O (centres undefined)")
0.80
>>> value_reported("COc1ccc2c(c1)c1c3c(c4c5ccccc5n(C)c4c1n2CCCC#N)C(=O)NC3=O")
-0.70
>>> value_reported("COc1ccc2c(c1)c1c3c(c4c5ccccc5n(C)c4c1n2CC(O)CN(C)C)C(=O)NC3=O (centres undefined)")
-0.29
>>> value_reported("COc1ccc2c(c1)c1c3c(c4c5ccccc5n(C)c4c1n2CCC#N)C(=O)NC3=O")
-0.40

Query: Sample COc1ccc2c(c1)c1c3c(c4c5ccccc5n(C)c4c1n2CC(O)CN(C)C)C(=O)NC3 (centres undefined) — what was its log10(IC50)?
Response: 1.18

Query: Sample COc1ccc2c(c1)c1c3c(c4c5cc(OC)ccc5n(CCC#N)c4c1n2C)CNC3=O — what was its log10(IC50)?
Response: 1.65

----------
# EXPERIMENTAL_PROTOCOL: Tested for inhibition of catalytic subunit of cAMP-dependent protein kinase from bovine heart
METRIC: IC50 (µM)
Report the value in µM with no unit label.

>>> value_reported("CN(C)CC(O)Cn1c2ccccc2c2c3c(c4c5ccccc5n(C)c4c21)C(=O)NC3 (stereo not drawn)")
24

Shift focus to the following entry.
Query: Sample CN(C)CCCn1c2ccccc2c2c3c(c4c5ccccc5n(C)c4c21)C(=O)NC3 — what was its IC50?
Response: 9.9

----------
# TGT: cGMP-dependent protein kinase 1 (Bos taurus)
# Sequence (P00516 whole entry): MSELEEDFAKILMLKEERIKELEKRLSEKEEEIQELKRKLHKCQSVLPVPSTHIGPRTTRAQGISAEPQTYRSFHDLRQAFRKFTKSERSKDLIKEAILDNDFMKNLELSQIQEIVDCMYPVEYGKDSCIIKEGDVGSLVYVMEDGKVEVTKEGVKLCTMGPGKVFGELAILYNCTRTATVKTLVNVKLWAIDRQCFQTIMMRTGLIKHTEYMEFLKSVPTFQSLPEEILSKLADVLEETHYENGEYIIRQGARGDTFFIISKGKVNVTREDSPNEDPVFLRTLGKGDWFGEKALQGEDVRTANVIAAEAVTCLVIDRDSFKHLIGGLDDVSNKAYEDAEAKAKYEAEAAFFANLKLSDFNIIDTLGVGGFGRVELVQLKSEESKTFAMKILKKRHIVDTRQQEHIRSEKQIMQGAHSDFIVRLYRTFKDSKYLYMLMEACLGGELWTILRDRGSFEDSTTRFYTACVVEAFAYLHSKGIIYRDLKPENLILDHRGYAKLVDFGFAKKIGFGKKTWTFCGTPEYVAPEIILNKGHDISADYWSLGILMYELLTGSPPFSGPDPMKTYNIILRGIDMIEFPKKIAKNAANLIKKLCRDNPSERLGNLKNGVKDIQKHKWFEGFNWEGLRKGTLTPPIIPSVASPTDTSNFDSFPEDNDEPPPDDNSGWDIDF
Here the recorded pIC50 is given for each entry.
Reminder that pIC50 is minus the log10 of a molar concentration.

Recorded pIC50, per entry:
>>> value_reported("COc1ccc2c(c1)c1c3c(c4c5ccccc5n(C)c4c1n2CC(O)CN(C)C)C(=O)NC3 (stereo not given)")
4.64
>>> value_reported("Cn1c2ccccc2c2c3c(c4c5ccccc5n(CCC#N)c4c21)C(=O)NC3=O")
5.14
>>> value_reported("Cn1c2ccccc2c2c3c(c4c5ccccc5n(CCCN)c4c21)CNC3=O")
6.66

Shift focus to the following entry.
Query: Sample CN(C)CCCn1c2ccccc2c2c3c(c4c5ccccc5[nH]c4c21)C(=O)NC3 — what was its pIC50?
Response: 6.38
